target: Glucose transporter (Leishmania mexicana) (UniProt O61059); assay: ST_JUDE_LEISH: Cytotoxicity at 2uM final concentration against transgenic Leishmania Mexicana promastigotes LmGT2 that are glucose transport deficient and complemented with the L. Mexicana glucose transporter 2. Activity is measured by DNA content using SYBR green in vitro; assay type: functional
MEASURED PROPERTY: inhibition

COMPOUND	RESULT
CCN(CC)CCN(Cc1ccc(-c2ccc(C(F)(F)F)cc2)cc1)C(=O)Cn1c(CCc2ccc(F)c(F)c2F)nc(=O)c2ccccc21	10.2%
CN1CCCCC1CCc1cc(C(=O)Nc2ccc(-c3ccc(O)cc3)cc2)ccc1O (stereo unspecified)	-0.5%
COc1ccc(Cn2c(Nc3cccc(C(F)(F)F)c3)nc3cc(C(=O)NCCCN(C)C)ccc32)cc1Cl	-1.19%

Missing value: inhibition, Glucose transporter (Leishmania mexicana) (UniProt O61059), entry CCOC(=O)C1=C(C)NC2=C(C(=O)CC(C)(C)C2)C1c1ccc(Cl)cc1 (stereo unspecified) . Fill in?
0.29%

Missing value: inhibition, Glucose transporter (Leishmania mexicana) (UniProt O61059), entry `Cc1cc(Nc2ccccc2)nc(Nc2ccccc2)n1` . Fill in?
1.86%

Missing value: inhibition, Glucose transporter (Leishmania mexicana) (UniProt O61059), entry `CCCN(c1ccc(O)c(CN2CCCCC2)c1)c1ccc([N+](=O)[O-])cn1` . Fill in?
1.09%

Missing value: inhibition, Glucose transporter (Leishmania mexicana) (UniProt O61059), entry `Cc1c(NC(=O)COc2ccc(Cl)cc2C(=O)c2cc(F)cc(C(F)(F)F)c2)ccc2ncsc12` . Fill in?
7.93%

Missing value: inhibition, Glucose transporter (Leishmania mexicana) (UniProt O61059), entry `Cc1ccc(Nc2nccc(Nc3ccc4c(C)n[nH]c4c3)n2)cc1F` . Fill in?
1.7%

* * *

target: Glucose transporter (Leishmania mexicana); experiment: ST_JUDE_LEISH: Cytotoxicity at 2uM final concentration against transgenic Leishmania Mexicana promastigotes LmGT2 that are glucose transport deficient and complemented with the L. Mexicana glucose transporter 2. Activity is measured by DNA content using SYBR green in vitro; assay type: functional
MEASURED PROPERTY: inhibition (%)
Provide the reading as a plain figure in %.

These solved cases illustrate the format of a correct answer.
COMPOUND	ASSAY TARGET	inhibition [%]
COc1ccccc1Cn1ccnc1SCC(=O)Nc1cc(C(F)(F)F)ccc1Cl	Glucose transporter (Leishmania mexicana)	-1.55
Nc1ncc(-c2ccc(NC(=O)Nc3cc(C(F)(F)F)ccc3F)cc2)c(N)n1	Glucose transporter (Leishmania mexicana)	0.6
N=C(N)NN=Cc1c2ccccc2c(Cl)c2cc(Cl)ccc12	Glucose transporter (Leishmania mexicana)	29.3
CCCN(CC1CC1)c1ncc(-c2cccc(CNCc3ccccc3O)c2)cn1	Glucose transporter (Leishmania mexicana)	-1.63
OCC1CCN(Cc2ccc(-c3cccc(-c4nc5cc(C(F)(F)F)ccc5[nH]4)c3)cc2)CC1	Glucose transporter (Leishmania mexicana)	7.35

# get_value(readout='inhibition', item= `O=C(Nc1nc2cc(S(=O)(=O)NCCc3cccc(F)c3)ccc2n1CCCn1ccnc1)c1ccc(Cl)cc1` )
4.97

# get_value(readout='inhibition', item= `O=C(Nc1cccc(OC2CCN(Cc3ccc(F)cc3)CC2)c1)c1ccc(C(F)(F)F)cc1` )
0.79

# get_value(readout='inhibition', item= `CCc1cc(OC)ccc1C1CCN(CCCCNC(=O)c2ccc(NC(=O)c3ccc(Cl)cc3)cc2)CC1` )
-1.82

# get_value(readout='inhibition', item= N#Cc1cccc(C(O)CN(Cc2ccccc2)Cc2ccccc2)c1 (stereo unspecified) )
2.04

# get_value(readout='inhibition', item= `CCOc1ccccc1CNc1nccc(NCc2ccc(Cl)cc2Cl)n1` )
9.92
